molecular target: Fatty-acid amide hydrolase 1 (Homo sapiens, UniProt O00519); assay: Inhibition of human FAAH
Sequence (O00519 whole entry): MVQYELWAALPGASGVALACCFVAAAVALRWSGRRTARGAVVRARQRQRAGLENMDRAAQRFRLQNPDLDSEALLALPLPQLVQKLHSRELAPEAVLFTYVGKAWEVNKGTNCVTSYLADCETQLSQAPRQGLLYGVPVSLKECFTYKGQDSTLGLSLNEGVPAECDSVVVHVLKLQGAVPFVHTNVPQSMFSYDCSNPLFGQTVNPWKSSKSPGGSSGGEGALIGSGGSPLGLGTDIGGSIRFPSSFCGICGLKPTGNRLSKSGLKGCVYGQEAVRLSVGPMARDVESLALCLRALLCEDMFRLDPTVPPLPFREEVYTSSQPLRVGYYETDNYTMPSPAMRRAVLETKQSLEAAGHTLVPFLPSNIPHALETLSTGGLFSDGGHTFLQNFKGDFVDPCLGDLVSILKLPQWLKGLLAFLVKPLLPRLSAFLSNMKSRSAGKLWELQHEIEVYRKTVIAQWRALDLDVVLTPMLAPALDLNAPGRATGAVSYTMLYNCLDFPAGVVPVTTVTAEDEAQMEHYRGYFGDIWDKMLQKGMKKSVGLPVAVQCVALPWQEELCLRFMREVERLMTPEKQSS
PARAMETER: IC50
Returns: string containing the numeric result and its unit.

{"columns": ["CHEMICAL STRUCTURE", "RESULT"],
 "data": [
  ["CCCCC/C=C\\C/C=C\\C/C=C\\C/C=C\\CCCCN1C(=O)C=CC1=O", "2.18 µM"]
]}

Shift focus to the following entry.
What value of IC50 has been recorded for this entry: O=C(Nc1cccc(-c2ccccc2)c1)OC1CCCCC1 5.65 µM

----------
Target: Monoglyceride lipase (Homo sapiens)
Sequence (Q99685 whole entry): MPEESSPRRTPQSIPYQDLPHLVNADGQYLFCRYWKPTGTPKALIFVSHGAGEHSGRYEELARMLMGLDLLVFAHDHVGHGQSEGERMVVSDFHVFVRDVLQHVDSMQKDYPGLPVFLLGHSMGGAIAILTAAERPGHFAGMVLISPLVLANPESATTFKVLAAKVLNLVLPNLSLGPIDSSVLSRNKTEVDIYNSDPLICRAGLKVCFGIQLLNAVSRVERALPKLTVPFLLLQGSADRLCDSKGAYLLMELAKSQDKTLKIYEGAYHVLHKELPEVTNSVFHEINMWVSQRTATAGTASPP
Assay: Displacement of [3H]2-OG from human MGL by liquid scintillation counting
A collection of compounds and their measured pIC50
Keep it numeric: pIC50 is minus log10 of the concentration in mol/L.

{"columns": ["CHEMICAL STRUCTURE", "SYSTEM NAME", "pIC50"],
 "data": [
  ["O=C1C=CC(=O)N1c1ccc(F)cc1", "Monoglyceride lipase (Homo sapiens)", 5.29],
  ["O=C1C=CC(=O)N1c1ccc(N2C(=O)C=CC2=O)cc1", "Monoglyceride lipase (Homo sapiens)", 5.65],
  ["COc1ccc(N2C(=O)C=CC2=O)cc1", "Monoglyceride lipase (Homo sapiens)", 5.24],
  ["CCc1ccc(CN2C(=O)C=CC2=O)cc1", "Monoglyceride lipase (Homo sapiens)", 5.45],
  ["O=C1C=CC(=O)N1c1cccc(Cl)c1", "Monoglyceride lipase (Homo sapiens)", 5.55],
  ["CCCCCCCCCCCCCCCCN1C(=O)C=CC1=O", "Monoglyceride lipase (Homo sapiens)", 5.57]
]}

Then this compound:
Record request: pIC50 value, item COc1ccccc1N1C(=O)C=CC1=O 5.16

----------
target: Monoglyceride lipase (Homo sapiens); assay: Inhibition of [3H]2-OG binding to human MGL at 1 mM by liquid scintillation counting
PARAMETER: inhibition

These recorded examples may help you get a feel for the data.
{"columns": ["CHEMICAL STRUCTURE", "RESULT"],
 "data": [
  ["O=C1c2ccccc2C(=O)N1c1ccccc1", "0%"],
  ["CC1=C(C)C(=O)N(c2ccccc2)C1=O", "57%"],
  ["O=C1C=C(c2ccccc2)C(=O)N1c1ccccc1", "50%"]
]}

Reported inhibition for CC1=CC(=O)N(c2ccccc2)C1=O : what is it? 50%

Please report the recorded inhibition for O=C1CCC(=O)N1c1ccccc1 . 0%

----------
Collected IC50 values appear next to each entry.
biological target: Fatty-acid amide hydrolase 1 (Homo sapiens, UniProt O00519); experiment: Displacement of [3H]ethanolamine from human recombinant FAAH by liquid scintillation counting
The reply should be a number in µM, with the unit left off.

{"columns": ["CHEMICAL STRUCTURE", "UNIT INFO", "IC50"],
 "data": [
  ["O=C1C=CC(=O)N1CCc1ccccc1", "µM", 249]
]}

I am curious: what IC50 value has been reported for O=C1C=CC(=O)N1CCCCCCN1C(=O)C=CC1=O ? 18.2

What does the data say about its IC50? Entry: O=C1C=CC(=O)N1c1ccc(Cc2ccc(N3C(=O)C=CC3=O)cc2)cc1 10.7

Entry under review: CCc1ccc(CN2C(=O)C=CC2=O)cc1 . Reported IC50? 123
